- Tested on: HIV-1
- Test Method Notes: HIV-1 replication inhibition in MT4 cells
- Type: cell-based
- Test Parameters: viral replication in MT4 cells; three independent experiments, average ± standard deviation; read-out: HIV-1 EC50
Reported Metric: pEC50
The meaning of pEC50 here: minus log10 of the concentration in molar units.

O=C1Nc2ccc(Cl)cc2/C1=N/Nc1nc(-c2ccc(Cl)c(Cl)c2)cs1 | 4.88
Cc1ccc(-c2csc(N/N=C3\C(=O)Nc4ccc([N+](=O)[O-])cc43)n2)cc1 [10a] | 4.80
O=C1Nc2ccc([N+](=O)[O-])cc2/C1=N/Nc1nc(-c2ccc(Br)cc2)cs1 | 4.49

[in] Provide the documented pEC50 with HIV-1 as the system for "O=C1Nc2ccc([N+](=O)[O-])cc2/C1=N/Nc1nc(-c2ccc(Cl)cc2)cs1"
[out] 4.60

The origin of these recorded values is paper PMC10328743.
